Where these numbers come from: patent US20100184853A1

Answer each item with its documented Halo (inhibition circle around the disc).
system: Malassezia furfur CBS 1878; experiment: Antifungal disk diffusion susceptibility test; type: cell-based; details: 15 nmol per 6 mm paper disc; ML2 plates; two days at 30° C.
Answers are plain numbers, in mm.

Please review the following examples before continuing.
CC(=O)N1CCN(c2ccc(OCC3COC(Cn4ccnc4)(c4ccc(Cl)cc4Cl)O3)cc2)CC1 (stereo not shown): 23
CO[C@@H]1C(=O)CC[C@]2(CO2)[C@@]1(O)[C@@]1(C)O[C@@H]1CC=C(C)C: 46
COC1C(=O)CCC(O)(CCl)C1(O)C1(C)OC1CC=C(C)C (stereo not shown): 35

Consider now this further compound.
Returns the measured Halo (inhibition circle around the disc) for the input compound. Input: CO[C@@H]1[C@H](OC(=O)/C=C/C=C/C=C/C=C/C(=O)O)CC[C@]2(CO2)[C@H]1[C@@]1(C)O[C@@H]1CC=C(C)C 27
